# tested_on: Hemoglobin HbA (Homo sapiens) (UniProt P69905+P68871)
# Sequence (P68871 2-147 partner limits assumed): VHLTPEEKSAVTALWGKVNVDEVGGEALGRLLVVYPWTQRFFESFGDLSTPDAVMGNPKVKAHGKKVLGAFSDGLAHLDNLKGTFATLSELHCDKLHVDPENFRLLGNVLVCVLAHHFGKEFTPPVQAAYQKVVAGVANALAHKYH
# Sequence (P69905 2-142 limits assumed): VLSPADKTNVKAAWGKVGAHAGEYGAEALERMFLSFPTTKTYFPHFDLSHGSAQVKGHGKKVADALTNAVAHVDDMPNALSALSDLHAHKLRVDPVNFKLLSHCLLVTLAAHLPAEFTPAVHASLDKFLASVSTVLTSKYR
# assay_protocol: Ability to right-shift the oxygen equilibrium curves (OECs) quantified by ability to increase in P50 at which Hb was 50% saturated with oxygen in the […] of the effector.
# Assay type: functional
quantity_kind: P50e (mmHg)
The reply should contain only the number, in mmHg.

Exercise: What does the data say about its P50e? Entry: "Cc1cc(C)cc(NC(=O)Cc2ccc(OC3(C(=O)N[C@H](Cc4ccc(O)cc4)C(=O)O)CCCC3)cc2)c1"
Solution: 47

Exercise: # iterate: "Cc1cc(C)cc(NC(=O)Cc2ccc(OC3(C(=O)N[C@H](Cc4ccccc4)C(=O)O)CCCC3)cc2)c1"
Solution: 48.1

Exercise: Also need "Cc1cc(C)cc(NC(=O)Cc2ccc(OC3(C(=O)N[C@H](CC(C)C)C(=O)O)CCCC3)cc2)c1" , thanks.
Solution: 41.9

Exercise: Now this one: "Cc1cc(C)cc(NC(=O)Cc2ccc(OC3(C(=O)N[C@H](C(=O)O)C(C)C)CCCC3)cc2)c1"
Solution: 53.9

Exercise: Queued: "CSCC[C@H](NC(=O)C1(Oc2ccc(CC(=O)Nc3cc(C)cc(C)c3)cc2)CCCC1)C(=O)O"
Solution: 50.7

Exercise: Lookup "Cc1cc(C)cc(NC(=O)Cc2ccc(OC3(C(=O)N[C@H](CO)C(=O)O)CCCC3)cc2)c1"
Solution: 31.1

Exercise: What do you have for "Cc1cc(C)cc(NC(=O)Cc2ccc(OC3(C(=O)N[C@@H](CCCCNC(=O)OCc4ccccc4)C(=O)O)CCCC3)cc2)c1" ?
Solution: 39.5

Exercise: Check "Cc1cc(C)cc(NC(=O)Cc2ccc(OC3(C(=O)N[C@@H](Cc4ccccc4)C(=O)O)CCCC3)cc2)c1" too.
Solution: 64.1

Exercise: Moving on to "Cc1cc(C)cc(NC(=O)Cc2ccc(OC3(C(=O)N[C@H](CSCc4ccccc4)C(=O)O)CCCC3)cc2)c1"
Solution: 30.6

Exercise: Next record, please: "Cc1cc(C)cc(NC(=O)Cc2ccc(OC3(C(=O)N4CCC[C@H]4C(=O)O)CCCC3)cc2)c1"
Solution: 41.1

Exercise: How about this compound: "Cc1cc(C)cc(NC(=O)Cc2ccc(OC3(C(=O)O)CCCC3)cc2)c1"
Solution: 67.7

Exercise: Now the same for "Cc1cc(C)cc(NC(=O)Cc2ccc(OC3(C(=O)N[C@H](CCC(=O)O)C(=O)O)CCCC3)cc2)c1"
Solution: 50.1

Exercise: // query: "Cc1cc(C)cc(NC(=O)Cc2ccc(OC3(C(=O)NCC(=O)O)CCCC3)cc2)c1"
Solution: 50

Exercise: Try the compound Cc1cc(C)cc(NC(=O)Cc2ccc(OC3(C(=O)N[C@@H](C(=O)O)C(C)O)CCCC3)cc2)c1 (some centres not stated)
Solution: 39.7

Exercise: Same read-out for "CSCC[C@@H](NC(=O)C1(Oc2ccc(CC(=O)Nc3cc(C)cc(C)c3)cc2)CCCC1)C(=O)O" ?
Solution: 44.8

Exercise: Note, next up: "Cc1cc(C)cc(NC(=O)Cc2ccc(OC3(C(=O)N[C@H](CCCCNC(=O)OCc4ccccc4)C(=O)O)CCCC3)cc2)c1"
Solution: 27.6

Exercise: Query "Cc1cc(C)cc(NC(=O)Cc2ccc(OC3(C(=O)N[C@@H](CO)C(=O)O)CCCC3)cc2)c1" next
Solution: 38.7

Exercise: Request: "Cc1cc(C)cc(NC(=O)Cc2ccc(OC3(C(=O)N[C@@H](Cc4ccc5[nH]ccc5c4)C(=O)O)CCCC3)cc2)c1"
Solution: 47.2

Exercise: Another compound to look at: "Cc1cc(C)cc(NC(=O)Cc2ccc(OC(C)(C)C(=O)O)cc2)c1"
Solution: 80

Exercise: Note, next up: "Cc1cc(C)cc(NC(=O)Cc2ccc(OC3(C(=O)N[C@@H](C(=O)O)C(C)C)CCCC3)cc2)c1"
Solution: 56.6

Exercise: Now this one: "Cc1cc(C)cc(NC(=O)Cc2ccc(OC3(C(=O)N[C@H](CCCCN)C(=O)O)CCCC3)cc2)c1"
Solution: 26.7

Exercise: And what about the compound "Cc1cc(C)cc(NC(=O)Cc2ccc(OC3(C(=O)N[C@H](C)C(=O)O)CCCC3)cc2)c1" ?
Solution: 50.3

Exercise: Also, "Cc1cc(C)cc(NC(=O)Cc2ccc(OC3(C(=O)N[C@@H](CC(C)C)C(=O)O)CCCC3)cc2)c1" please.
Solution: 70.6

Exercise: Note, next up: "Cc1cc(C)cc(NC(=O)Cc2ccc(OC3(C(=O)N[C@H](CC(=O)O)C(=O)O)CCCC3)cc2)c1"
Solution: 50.2

Exercise: Next: "CC[C@@H](C)[C@@H](NC(=O)C1(Oc2ccc(CC(=O)Nc3cc(C)cc(C)c3)cc2)CCCC1)C(=O)O"
Solution: 38.9

Exercise: Next record, please: "Cc1cc(C)cc(NC(=O)Cc2ccc(OC3(C(=O)N[C@@H](CCCCN)C(=O)O)CCCC3)cc2)c1"
Solution: 27.2

Exercise: Another compound: "Cc1cc(C)cc(NC(=O)Cc2ccc(OC3(C(=O)N[C@@H](C)C(=O)O)CCCC3)cc2)c1"
Solution: 42.8
